assay-target: human ether-à-go-go-related gene (hERG) potassium channel (human)
Sequence (Q12809 whole entry, looked up): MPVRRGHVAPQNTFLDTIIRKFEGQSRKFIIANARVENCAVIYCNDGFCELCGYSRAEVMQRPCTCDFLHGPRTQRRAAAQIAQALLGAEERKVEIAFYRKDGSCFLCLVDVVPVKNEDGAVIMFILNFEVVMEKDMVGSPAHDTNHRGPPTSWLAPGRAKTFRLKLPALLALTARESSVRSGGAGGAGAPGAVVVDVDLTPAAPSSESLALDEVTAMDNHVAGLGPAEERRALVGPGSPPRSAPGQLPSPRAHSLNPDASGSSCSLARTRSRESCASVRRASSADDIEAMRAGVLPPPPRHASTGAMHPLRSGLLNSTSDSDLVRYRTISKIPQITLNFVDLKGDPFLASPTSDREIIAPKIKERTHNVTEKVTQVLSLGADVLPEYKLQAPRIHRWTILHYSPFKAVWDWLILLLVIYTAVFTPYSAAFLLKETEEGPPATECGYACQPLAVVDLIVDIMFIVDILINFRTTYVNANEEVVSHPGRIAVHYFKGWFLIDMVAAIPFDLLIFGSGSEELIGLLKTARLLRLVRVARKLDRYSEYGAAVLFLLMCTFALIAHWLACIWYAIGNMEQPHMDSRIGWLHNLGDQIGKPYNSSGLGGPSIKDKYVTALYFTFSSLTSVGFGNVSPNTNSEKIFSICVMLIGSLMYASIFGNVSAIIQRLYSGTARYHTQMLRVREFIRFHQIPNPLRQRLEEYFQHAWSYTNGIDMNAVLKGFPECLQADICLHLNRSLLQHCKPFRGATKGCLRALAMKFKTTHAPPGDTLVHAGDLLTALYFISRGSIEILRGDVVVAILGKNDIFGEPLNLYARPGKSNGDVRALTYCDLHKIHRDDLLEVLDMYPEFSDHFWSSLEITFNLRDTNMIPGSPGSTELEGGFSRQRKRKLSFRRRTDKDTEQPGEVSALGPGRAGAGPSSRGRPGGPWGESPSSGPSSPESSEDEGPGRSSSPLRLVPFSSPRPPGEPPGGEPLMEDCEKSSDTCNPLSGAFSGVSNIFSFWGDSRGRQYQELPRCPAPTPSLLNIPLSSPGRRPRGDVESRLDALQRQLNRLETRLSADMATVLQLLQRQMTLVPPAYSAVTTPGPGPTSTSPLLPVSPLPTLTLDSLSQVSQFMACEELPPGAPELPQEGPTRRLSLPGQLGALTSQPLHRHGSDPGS
test-protocol: primary screen, population patch clamp on CHO cells stably expressing hERG; higher = less effect of the substance
The whole screen tested about 310,000 compounds, of which about 14,000 (4.5%) showed an effect of 50% or more. The effect is printed as a negative number. Only a selection was taken, and strong results are over-represented in it overall.
Answer each item with its documented hERG current change (%, negative = inhibition) at 10uM.
A number alone suffices; assume %.

# value lookup — system human ether-à-go-go-related gene (hERG) potassium channel (human), readout hERG current change (%, negative = inhibition) at 10uM, item `O=C(Nc1ncn[nH]1)c1cc(S(=O)(=O)Nc2cccc(C(F)(F)F)c2)ccc1Cl`
17.8

# value lookup — system human ether-à-go-go-related gene (hERG) potassium channel (human), readout hERG current change (%, negative = inhibition) at 10uM, item Cc1ccc(CCN2CC(C(=O)N3CCN(c4ccc(F)cc4)CC3)CC2=O)cc1 (centres unmarked);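 further: peak tail current of the secondary pulse compared with the same well before compound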
-57.4

# value lookup — system human ether-à-go-go-related gene (hERG) potassium channel (human), readout hERG current change (%, negative = inhibition) at 10uM, item O=C1CC(C(=O)N2CCN(c3ccc(F)cc3)CC2)CN1CCc1ccccc1 (centres unmarked);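 further: peak tail current of the secondary pulse compared with the same well before compound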
-50.5

# value lookup — system human ether-à-go-go-related gene (hERG) potassium channel (human), readout hERG current change (%, negative = inhibition) at 10uM, item COc1ccccc1CN1CC(C(=O)N2CCN(c3ccc(F)cc3)CC2)CC1=O (centres unmarked);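 further: peak tail current of the secondary pulse compared with the same well before compound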
-43

# value lookup — system human ether-à-go-go-related gene (hERG) potassium channel (human), readout hERG current change (%, negative = inhibition) at 10uM, item CSCC(NS(=O)(=O)c1ccc(C)cc1)C(=O)O (centres unmarked);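 further: peak tail current of the secondary pulse compared with the same well before compound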
8.98
